Each entry below carries its recorded Ryegrass, Italian plant response rating.
# System: Ryegrass, Italian (Italian ryegrass, Lolium multiflorum)
# ASSAY: Test A postemergence, Ryegrass, Italian
# Assay type: in vivo
# CONDITION_SUMMARY: Postemergence, 500 g ai/ha; visual injury vs untreated controls after approx. 10 days; 0 to 100 scale (0 no effect, 100 complete control)

[
  {
    "MOLECULE": "CCn1nc(Cl)cc(-c2cc(N(S(C)(=O)=O)S(=O)(=O)C(F)(F)F)c(C)cc2C)c1=O",
    "TARGET": "Ryegrass, Italian (Italian ryegrass, Lolium multiflorum)",
    "Ryegrass, Italian plant response rating": 90
  },
  {
    "MOLECULE": "CCC1(CC)CC(c2cc(NS(=O)(=O)C(F)(F)F)c(C)cc2C)=NO1",
    "TARGET": "Ryegrass, Italian (Italian ryegrass, Lolium multiflorum)",
    "Ryegrass, Italian plant response rating": 90
  },
  {
    "MOLECULE": "Cc1cc(C)c(C(=O)N2CCC3(CCCC3)C2)cc1NS(=O)(=O)C(F)(F)F",
    "TARGET": "Ryegrass, Italian (Italian ryegrass, Lolium multiflorum)",
    "Ryegrass, Italian plant response rating": 40
  },
  {
    "MOLECULE": "Cc1cc(C)c(N(S(=O)(=O)C(F)(F)F)S(=O)(=O)C(F)(F)F)cc1C(=O)N1CCC(F)(F)CC1",
    "TARGET": "Ryegrass, Italian (Italian ryegrass, Lolium multiflorum)",
    "Ryegrass, Italian plant response rating": 40
  },
  {
    "MOLECULE": "Cc1cc(C)c(N(S(=O)(=O)C(F)(F)F)S(=O)(=O)C(F)(F)F)cc1-c1cc(Cl)nn(C)c1=O",
    "TARGET": "Ryegrass, Italian (Italian ryegrass, Lolium multiflorum)",
    "Ryegrass, Italian plant response rating": 70
  },
  {
    "MOLECULE": "Cc1cc(Cl)c(NS(=O)(=O)C(F)(F)F)cc1C(=O)N1CCC(Cl)CC1",
    "TARGET": "Ryegrass, Italian (Italian ryegrass, Lolium multiflorum)",
    "Ryegrass, Italian plant response rating": 60
  },
  {
    "MOLECULE": "Cc1cc(C)c(C2=NOC3(C2)CC(C)OC(C)C3)cc1NS(=O)(=O)C(F)(F)F (single isomer, unassigned) [Compound 171]",
    "TARGET": "Ryegrass, Italian (Italian ryegrass, Lolium multiflorum)",
    "Ryegrass, Italian plant response rating": 80
  },
  {
    "MOLECULE": "Cc1cc(C)c(N(S(=O)(=O)C(F)(F)F)S(=O)(=O)C(F)(F)F)cc1C1=NOC(C)(CCl)C1 (stereo not shown)",
    "TARGET": "Ryegrass, Italian (Italian ryegrass, Lolium multiflorum)",
    "Ryegrass, Italian plant response rating": 0
  },
  {
    "MOLECULE": "Cc1cc(C)c(-c2ccnn(CC(C)C)c2=O)cc1NS(=O)(=O)C(F)(F)F",
    "TARGET": "Ryegrass, Italian (Italian ryegrass, Lolium multiflorum)",
    "Ryegrass, Italian plant response rating": 0
  },
  {
    "MOLECULE": "Cc1cc(Cl)c(C2=NOC3(CCCC3)C2)cc1N(S(=O)(=O)C(F)(F)F)S(=O)(=O)C(F)(F)F",
    "TARGET": "Ryegrass, Italian (Italian ryegrass, Lolium multiflorum)",
    "Ryegrass, Italian plant response rating": 20
  },
  {
    "MOLECULE": "Cc1cc(C)c(C2=NOC3(CCOCC3)C2)cc1NS(=O)(=O)C(F)(F)F",
    "TARGET": "Ryegrass, Italian (Italian ryegrass, Lolium multiflorum)",
    "Ryegrass, Italian plant response rating": 90
  },
  {
    "MOLECULE": "Cc1cc(C)c(N(S(=O)(=O)C(F)(F)F)S(=O)(=O)C(F)(F)F)cc1-c1ccnn(C)c1=O",
    "TARGET": "Ryegrass, Italian (Italian ryegrass, Lolium multiflorum)",
    "Ryegrass, Italian plant response rating": 80
  },
  {
    "MOLECULE": "Cc1c(NS(=O)(=O)C(F)(F)F)cc(C(=O)N2CCCCC2)c(C)c1F",
    "TARGET": "Ryegrass, Italian (Italian ryegrass, Lolium multiflorum)",
    "Ryegrass, Italian plant response rating": 60
  },
  {
    "MOLECULE": "Cc1cc(F)c(C(=O)N2CCC(C#N)CC2)cc1N(S(=O)(=O)C(F)(F)F)S(=O)(=O)C(F)(F)F",
    "TARGET": "Ryegrass, Italian (Italian ryegrass, Lolium multiflorum)",
    "Ryegrass, Italian plant response rating": 0
  },
  {
    "MOLECULE": "Cc1cc(C)c(C2=NOC3CCCC23)cc1NS(=O)(=O)C(F)(F)F (stereo not shown)",
    "TARGET": "Ryegrass, Italian (Italian ryegrass, Lolium multiflorum)",
    "Ryegrass, Italian plant response rating": 90
  },
  {
    "MOLECULE": "Cc1cc(C)c(-c2ccnn(CC(F)(F)F)c2=O)cc1NS(=O)(=O)C(F)(F)F",
    "TARGET": "Ryegrass, Italian (Italian ryegrass, Lolium multiflorum)",
    "Ryegrass, Italian plant response rating": 90
  },
  {
    "MOLECULE": "Cc1cc(C)c(N(S(=O)(=O)C(F)(F)F)S(=O)(=O)C(F)(F)F)cc1C1=NOC2(CCC2)C1",
    "TARGET": "Ryegrass, Italian (Italian ryegrass, Lolium multiflorum)",
    "Ryegrass, Italian plant response rating": 30
  },
  {
    "MOLECULE": "C#CCN(CC#C)C(=O)c1cc(N(S(=O)(=O)C(F)(F)F)S(=O)(=O)C(F)(F)F)c(C)cc1C",
    "TARGET": "Ryegrass, Italian (Italian ryegrass, Lolium multiflorum)",
    "Ryegrass, Italian plant response rating": 90
  },
  {
    "MOLECULE": "Cc1cc(F)c(C(=O)N(C)C)cc1NS(=O)(=O)C(F)(F)F",
    "TARGET": "Ryegrass, Italian (Italian ryegrass, Lolium multiflorum)",
    "Ryegrass, Italian plant response rating": 60
  },
  {
    "MOLECULE": "COC1CCCN(C(=O)c2cc(NS(=O)(=O)C(F)(F)F)c(C)cc2C)C1 (stereo not shown)",
    "TARGET": "Ryegrass, Italian (Italian ryegrass, Lolium multiflorum)",
    "Ryegrass, Italian plant response rating": 80
  },
  {
    "MOLECULE": "Cc1cc(C)c(C(=O)N2CCCOCC2)cc1NS(=O)(=O)C(F)(F)F",
    "TARGET": "Ryegrass, Italian (Italian ryegrass, Lolium multiflorum)",
    "Ryegrass, Italian plant response rating": 0
  },
  {
    "MOLECULE": "Cc1cc(C)c(C2=NOC3(CCC3)C2)cc1NS(=O)(=O)C(F)(F)F",
    "TARGET": "Ryegrass, Italian (Italian ryegrass, Lolium multiflorum)",
    "Ryegrass, Italian plant response rating": 60
  },
  {
    "MOLECULE": "Cc1cc(C)c(-n2nccc(C)c2=O)cc1NS(=O)(=O)C(F)(F)F",
    "TARGET": "Ryegrass, Italian (Italian ryegrass, Lolium multiflorum)",
    "Ryegrass, Italian plant response rating": 50
  },
  {
    "MOLECULE": "CC(=O)N(c1cc(-c2ccnn(C)c2=O)c(C)cc1C)S(=O)(=O)C(F)(F)F",
    "TARGET": "Ryegrass, Italian (Italian ryegrass, Lolium multiflorum)",
    "Ryegrass, Italian plant response rating": 80
  },
  {
    "MOLECULE": "CCn1nc(C)cc(-c2cc(NS(=O)(=O)C(F)(F)F)c(C)cc2C)c1=O",
    "TARGET": "Ryegrass, Italian (Italian ryegrass, Lolium multiflorum)",
    "Ryegrass, Italian plant response rating": 80
  },
  {
    "MOLECULE": "Cc1cc(C)c(C2=NOC3(C2)CC(C)OC(C)C3)cc1NS(=O)(=O)C(F)(F)F (single isomer, unassigned) [Compound 173]",
    "TARGET": "Ryegrass, Italian (Italian ryegrass, Lolium multiflorum)",
    "Ryegrass, Italian plant response rating": 80
  },
  {
    "MOLECULE": "Cc1cc(C)c(N(S(=O)(=O)C(F)(F)F)S(=O)(=O)C(F)(F)F)cc1C(=O)N(C)CC1CC1",
    "TARGET": "Ryegrass, Italian (Italian ryegrass, Lolium multiflorum)",
    "Ryegrass, Italian plant response rating": 30
  },
  {
    "MOLECULE": "Cc1cc(-c2cc(N(S(=O)(=O)C(F)(F)F)S(=O)(=O)C(F)(F)F)c(C)cc2C)c(=O)n(C)n1",
    "TARGET": "Ryegrass, Italian (Italian ryegrass, Lolium multiflorum)",
    "Ryegrass, Italian plant response rating": 60
  },
  {
    "MOLECULE": "Cc1cc(C)c(N(S(=O)(=O)C(F)(F)F)S(=O)(=O)C(F)(F)F)cc1C1=NOC2(CCSCC2)C1",
    "TARGET": "Ryegrass, Italian (Italian ryegrass, Lolium multiflorum)",
    "Ryegrass, Italian plant response rating": 40
  },
  {
    "MOLECULE": "Cc1cc(C)c(-c2cc(Br)nn(C)c2=O)cc1NS(=O)(=O)C(F)(F)F",
    "TARGET": "Ryegrass, Italian (Italian ryegrass, Lolium multiflorum)",
    "Ryegrass, Italian plant response rating": 70
  },
  {
    "MOLECULE": "Cc1cc(C)c(N(S(=O)(=O)C(F)(F)F)S(=O)(=O)C(F)(F)F)cc1-c1cc(C(F)(F)F)nn(C)c1=O",
    "TARGET": "Ryegrass, Italian (Italian ryegrass, Lolium multiflorum)",
    "Ryegrass, Italian plant response rating": 80
  }
]

Hey, just so you know, these numbers are from patent US20230278972A1.
